These measurements were taken from the supplement of paper PMC9112550.

Could you please report measured shrunken log2 fold change for the items listed next?
# System: Escherichia coli TOP10
# METHOD NOTES: shrunken log2 fold change of peptide-encoding DNA abundance (4.5 h post-induction vs induction); higher = less antimicrobial activity (less host growth inhibition)
# SETTINGS: time post-induction: 4.5 h; library: site-saturation at positions 5, 18, 19, 20
Simply state the number, no unit and no words.

For reference, reported shrunken log2 fold change for `RRIRFRPPRLPRPRPRPFGHPRP` stands at -0.19

For reference, reported shrunken log2 fold change for `RRIRSRPPRLPRPRPRPDDNPRP` stands at 0.00575

For reference, reported shrunken log2 fold change for `RRIRERPPRLPRPRPRPSIKPRP` stands at -0.755

For reference, reported shrunken log2 fold change for `RRIRFRPPRLPRPRPRPIVEPRP` stands at 0.0776

For reference, reported shrunken log2 fold change for `RRIRFRPPRLPRPRPRPSADPRP` stands at 0.157

For reference, reported shrunken log2 fold change for `RRIRQRPPRLPRPRPRPHTQPRP` stands at 0.0338

For reference, reported shrunken log2 fold change for `RRIRKRPPRLPRPRPRPMWCPRP` stands at -0.113

For reference, reported shrunken log2 fold change for `RRIRERPPRLPRPRPRPASVPRP` stands at -0.0789

For reference, reported shrunken log2 fold change for `RRIRMRPPRLPRPRPRPQNGPRP` stands at 0.0258

For reference, reported shrunken log2 fold change for `RRIRNRPPRLPRPRPRPHHLPRP` stands at -0.427

For reference, reported shrunken log2 fold change for `RRIRRRPPRLPRPRPRPDGWPRP` stands at 1.45

For reference, reported shrunken log2 fold change for `RRIRARPPRLPRPRPRPPTGPRP` stands at 0.663

For reference, reported shrunken log2 fold change for `RRIRIRPPRLPRPRPRPTHHPRP` stands at 0.155

For reference, reported shrunken log2 fold change for `RRIRTRPPRLPRPRPRPYLWPRP` stands at -0.284

For reference, reported shrunken log2 fold change for `RRIRGRPPRLPRPRPRPEDNPRP` stands at 0.892

For reference, reported shrunken log2 fold change for `RRIRQRPPRLPRPRPRPFGGPRP` stands at 0.0432

For reference, reported shrunken log2 fold change for `RRIRIRPPRLPRPRPRPYMQPRP` stands at -0.695

For reference, reported shrunken log2 fold change for `RRIRQRPPRLPRPRPRPWSMPRP` stands at -0.0469

For reference, reported shrunken log2 fold change for `RRIRCRPPRLPRPRPRPQTIPRP` stands at -0.516

For reference, reported shrunken log2 fold change for `RRIRGRPPRLPRPRPRPTYWPRP` stands at 0.186

For reference, reported shrunken log2 fold change for `RRIRIRPPRLPRPRPRPLKAPRP` stands at -0.02

For reference, reported shrunken log2 fold change for `RRIRQRPPRLPRPRPRPTRNPRP` stands at 0.185

For reference, reported shrunken log2 fold change for `RRIRTRPPRLPRPRPRPGHIPRP` stands at -0.289

For reference, reported shrunken log2 fold change for `RRIRCRPPRLPRPRPRPNDKPRP` stands at -0.46

For reference, reported shrunken log2 fold change for `RRIRFRPPRLPRPRPRPYNDPRP` stands at -0.641

For reference, reported shrunken log2 fold change for `RRIRCRPPRLPRPRPRPHQEPRP` stands at -0.0176

For reference, reported shrunken log2 fold change for `RRIRQRPPRLPRPRPRPYSLPRP` stands at -0.197

For reference, reported shrunken log2 fold change for `RRIRERPPRLPRPRPRPVRAPRP` stands at 0.287

For reference, reported shrunken log2 fold change for `RRIRYRPPRLPRPRPRPTLSPRP` stands at -0.0535

For reference, reported shrunken log2 fold change for `RRIRQRPPRLPRPRPRPSWFPRP` stands at -0.323

For reference, reported shrunken log2 fold change for `RRIRERPPRLPRPRPRPGRAPRP` stands at 0.367

For reference, reported shrunken log2 fold change for `RRIRSRPPRLPRPRPRPKIKPRP` stands at -0.346

For reference, reported shrunken log2 fold change for `RRIRLRPPRLPRPRPRPNETPRP` stands at -0.0172

For reference, reported shrunken log2 fold change for `RRIRPRPPRLPRPRPRPCLIPRP` stands at -0.129

For reference, reported shrunken log2 fold change for `RRIRCRPPRLPRPRPRPNRYPRP` stands at -0.137

For reference, reported shrunken log2 fold change for `RRIRARPPRLPRPRPRPGIPPRP` stands at 0.162

For reference, reported shrunken log2 fold change for `RRIRARPPRLPRPRPRPKFKPRP` stands at -0.0259

For reference, reported shrunken log2 fold change for `RRIRRRPPRLPRPRPRPSYEPRP` stands at -0.33

For reference, reported shrunken log2 fold change for `RRIRCRPPRLPRPRPRPRNRPRP` stands at 0.239

For reference, reported shrunken log2 fold change for `RRIRKRPPRLPRPRPRPVVIPRP` stands at -0.112

For reference, reported shrunken log2 fold change for `RRIRRRPPRLPRPRPRPMTKPRP` stands at 0.0629

For reference, reported shrunken log2 fold change for `RRIRVRPPRLPRPRPRPCGHPRP` stands at 0.0386

For reference, reported shrunken log2 fold change for `RRIRLRPPRLPRPRPRPDTKPRP` stands at -0.122

For reference, reported shrunken log2 fold change for `RRIRLRPPRLPRPRPRPFMQPRP` stands at 0.0179

For reference, reported shrunken log2 fold change for `RRIRFRPPRLPRPRPRPHHPPRP` stands at -0.374

For reference, reported shrunken log2 fold change for `RRIRGRPPRLPRPRPRPRQYPRP` stands at -0.0954

For reference, reported shrunken log2 fold change for `RRIRPRPPRLPRPRPRPINEPRP` stands at -0.54

For reference, reported shrunken log2 fold change for `RRIRARPPRLPRPRPRPCMLPRP` stands at -0.0396

For reference, reported shrunken log2 fold change for `RRIRKRPPRLPRPRPRPNNRPRP` stands at 0.0938

For reference, reported shrunken log2 fold change for `RRIRRRPPRLPRPRPRPQCLPRP` stands at 0.066

For reference, reported shrunken log2 fold change for `RRIRIRPPRLPRPRPRPWSCPRP` stands at 0.0678

For reference, reported shrunken log2 fold change for `RRIRQRPPRLPRPRPRPREPPRP` stands at 0.0406

For reference, reported shrunken log2 fold change for `RRIRPRPPRLPRPRPRPPTNPRP` stands at 0.222

For reference, reported shrunken log2 fold change for `RRIRLRPPRLPRPRPRPSWAPRP` stands at -0.098

For reference, reported shrunken log2 fold change for `RRIRPRPPRLPRPRPRPSWLPRP` stands at -0.0766

For reference, reported shrunken log2 fold change for `RRIRGRPPRLPRPRPRPFVHPRP` stands at 0.111

For reference, reported shrunken log2 fold change for `RRIRWRPPRLPRPRPRPGQTPRP` stands at -0.0122

For reference, reported shrunken log2 fold change for `RRIRKRPPRLPRPRPRPKEEPRP` stands at 0.0277

For reference, reported shrunken log2 fold change for `RRIRTRPPRLPRPRPRPTFRPRP` stands at -0.0105

For reference, reported shrunken log2 fold change for `RRIRRRPPRLPRPRPRPECYPRP` stands at 0.368

For reference, reported shrunken log2 fold change for `RRIRCRPPRLPRPRPRPPVQPRP` stands at 0.652

For reference, reported shrunken log2 fold change for `RRIRPRPPRLPRPRPRPTQAPRP` stands at 0.0364

For reference, reported shrunken log2 fold change for `RRIRCRPPRLPRPRPRPRWMPRP` stands at 0.346

====

# System: Escherichia coli TOP10;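 also: peptides expressed intracellularly from a pBAD plasmid library in pooled LB shake-flask culture, induced with 0.3% L-arabinose, DNA abundance read by NGS, three biological replicates, DESeq2 with apeglm shrinkage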
# METHOD NOTES: shrunken log2 fold change of peptide-encoding DNA abundance (4.5 h post-induction vs induction); higher = less antimicrobial activity (less host growth inhibition)
# SETTINGS: time post-induction: 4.5 h; library: site-saturation at positions 5, 18, 19, 20
PARAMETER MEASURED: shrunken log2 fold change
Simply state the number, no unit and no words.

For reference, reported shrunken log2 fold change for `RRIRTRPPRLPRPRPRPEFWPRP` stands at 0.445

For reference, reported shrunken log2 fold change for `RRIRGRPPRLPRPRPRPKVDPRP` stands at 3.36

For reference, reported shrunken log2 fold change for `RRIRRRPPRLPRPRPRPLTSPRP` stands at 0.233

For reference, reported shrunken log2 fold change for `RRIRTRPPRLPRPRPRPHMAPRP` stands at -0.123

For reference, reported shrunken log2 fold change for `RRIRVRPPRLPRPRPRPGSYPRP` stands at -0.186

For reference, reported shrunken log2 fold change for `RRIRPRPPRLPRPRPRPGIHPRP` stands at -0.137

For reference, reported shrunken log2 fold change for `RRIRIRPPRLPRPRPRPFTMPRP` stands at -0.79

For reference, reported shrunken log2 fold change for `RRIRWRPPRLPRPRPRPAQVPRP` stands at 0.565

For reference, reported shrunken log2 fold change for `RRIRRRPPRLPRPRPRPFFDPRP` stands at 0.296

For reference, reported shrunken log2 fold change for `RRIRQRPPRLPRPRPRPEVGPRP` stands at -0.0239

For reference, reported shrunken log2 fold change for `RRIRLRPPRLPRPRPRPGSQPRP` stands at 0.0681

For reference, reported shrunken log2 fold change for `RRIRLRPPRLPRPRPRPVNKPRP` stands at -0.14

For reference, reported shrunken log2 fold change for `RRIRKRPPRLPRPRPRPNCKPRP` stands at 0.495

For reference, reported shrunken log2 fold change for `RRIRGRPPRLPRPRPRPENGPRP` stands at 0.223

For reference, reported shrunken log2 fold change for `RRIRVRPPRLPRPRPRPTKQPRP` stands at -0.0322
